- System: SK-MEL-28
- test summary: NCI tumour cell line growth inhibition, 48 h
Activity calls are given as the source filed them. Rule as the data show it: active = GI50 up to about 1.1 µM and inactive = higher.
Classes used: active, inactive

>  <molecule>
COC(=O)/C=C\C(C#N)(C#N)/N=C/c1ccc(C)cc1

>  <label value>
inactive

$$$$
>  <molecule>
COc1ccccc1N1C(=O)C2C3c4ccccc4C(OC(C)=O)(c4ccccc43)C2C1=O (stereo not given)

>  <label value>
inactive

$$$$
>  <molecule>
O=c1oc2ncccc2n1Cc1ccc([N+](=O)[O-])cc1

>  <label value>
inactive

$$$$
>  <molecule>
CCC1(O)C(=O)OCc2c1cc1n(c2=O)Cc2cc3cc(OC)c(OC)cc3nc2-1 (stereo not given)

>  <label value>
inactive

$$$$
>  <molecule>
COc1cc(/C=C(/C#N)C(N)=O)ccc1O

>  <label value>
inactive

$$$$
>  <molecule>
CN(C)c1ccc(/C=C(\NC(=O)c2ccccc2)c2nc3ccc4c(c3[nH]2)C(=O)c2ccccc2C4=O)cc1

>  <label value>
inactive

$$$$
>  <molecule>
O=C1CCC[C@H]2O[C@@H](COCc3ccccc3)C[C@@H]12

>  <label value>
inactive

$$$$
>  <molecule>
CC(=O)[O-].Cc1ncc(CO)c(/C=N/NC(N)=S)c1[O-].[Zn+2]

>  <label value>
inactive

$$$$
>  <molecule>
NS(=O)(=O)c1ccc(NCc2cccc3c(=O)c4ccc(Cl)cc4oc23)cc1

>  <label value>
inactive

$$$$
>  <molecule>
Cc1nc2c(n1Cc1ccc(F)cc1)C(=O)c1ccccc1C2=O

>  <label value>
inactive

$$$$
>  <molecule>
CC(C)N(CCCNc1c2ccccc2nc2cccc([N+](=O)[O-])c12)C(C)C

>  <label value>
active

$$$$
>  <molecule>
COc1ccc2nc3cccc([N+](=O)[O-])c3c(NCCN(C)C)c2c1

>  <label value>
active

$$$$
>  <molecule>
COc1ccc(/C=N/CCC/N=C/c2ccc(OC)cc2O)c(O)c1

>  <label value>
inactive

$$$$
>  <molecule>
COc1ccc(/C=N/n2c(Cc3ccccc3)n[nH]c2=O)c(OC)c1

>  <label value>
inactive

$$$$
>  <molecule>
O=S(=O)(c1ccccc1)C(CN1CCCCC1)S(=O)(=O)c1ccccc1

>  <label value>
inactive

$$$$
>  <molecule>
Cc1cc2c(cc1Cl)Sc1nnc(C)n1S2(=O)=O

>  <label value>
inactive

$$$$
>  <molecule>
CC#N.O[C@@H]1CCCC[C@H]1O.O[C@@H]1CCCC[C@H]1O.[TeH2]

>  <label value>
inactive

$$$$
>  <molecule>
O=[N+]([O-])c1ccc2nc3ccscc-3c2c1

>  <label value>
inactive

$$$$
>  <molecule>
CC(=O)c1cc(C)n2c1CS[C@@H]2c1ccccc1

>  <label value>
inactive

$$$$
>  <molecule>
CC1=C(c2cc(C(=O)Nc3cccc(C(F)(F)F)c3)ncn2)Sc2ccccc2N1

>  <label value>
inactive

$$$$

* * *

- Tested on: MCF7
- test summary: NCI tumour cell line growth inhibition, 48 h
Calls of active or inactive are those of the source. No stated cut-off is given here; in the data, active = GI50 up to about 1.1 µM and inactive = higher.
measurement kind: GI50

>  <molecule>
Oc1ccc(-c2nc(-c3cccnc3)c(-c3ccc(Cl)cc3)[nH]2)cc1O

>  <measured target>
MCF7

>  <reported>
11.5 µM (inactive)

$$$$
>  <molecule>
CCC(CCCC[C@H]1CC[C@@H]2CC(=O)C[C@H]12)OC (stereo partly specified)

>  <measured target>
MCF7

>  <reported>
> 100 µM (inactive)

$$$$
>  <molecule>
COc1c2ccoc2c(OC)c2oc(=O)ccc12 [ISOPIMPINELLIN]

>  <measured target>
MCF7

>  <reported>
> 100 µM (inactive)

$$$$
>  <molecule>
O=C(Cn1cc(-c2ccccc2)nn1)NC1CCCC1

>  <measured target>
MCF7

>  <reported>
> 100 µM (inactive)

$$$$
>  <molecule>
Cn1ccnc1Sc1ccc(/C=N/NC(=O)c2ccccc2O)cc1[N+](=O)[O-]

>  <measured target>
MCF7

>  <reported>
84.3 µM (inactive)

$$$$
>  <molecule>
CCOC(=O)C(NCc1ccccc1)(NC(=O)c1ccccc1)C(F)(F)F (stereo unspecified)

>  <measured target>
MCF7

>  <reported>
> 100 µM (inactive)

$$$$
>  <molecule>
COc1cc(/C=C(/C#N)C(N)=O)ccc1O

>  <measured target>
MCF7

>  <reported>
> 100 µM (inactive)

$$$$
>  <molecule>
c1ccc2c(c1)ccc1nc(-c3ccc4c(c3)OCO4)c3c(c12)CCC3

>  <measured target>
MCF7

>  <reported>
68.1 µM (inactive)

$$$$
>  <molecule>
Nc1cc(C(=O)O)nc(O)n1

>  <measured target>
MCF7

>  <reported>
> 100 µM (inactive)

$$$$
>  <molecule>
O=Cc1ccc2c(c1)CC1(C2)Cc2ccc(C=O)cc2C1

>  <measured target>
MCF7

>  <reported>
31.8 µM (inactive)

$$$$
>  <molecule>
N/C(=N\O)N/N=C\c1c(O)cc(O)cc1O

>  <measured target>
MCF7

>  <reported>
36.4 µM (inactive)

$$$$

* * *

- Test system: DMS-273
- test summary: NCI tumour cell line growth inhibition, 48 h
Activity calls are given as the source filed them. Cut-off read from the data, not from the text of the source: active = GI50 up to about 1.1 µM and inactive = higher.

>  <compound>
O=c1c2ccccc2nc2n1-c1ccccc1SC2

>  <measured target>
DMS-273

>  <GI50>
47.2 µM (inactive)

$$$$
>  <compound>
O=C(NCCO)c1cc2c(cn1)[nH]c1ccccc12

>  <measured target>
DMS-273

>  <GI50>
> 100 µM (inactive)

$$$$
>  <compound>
CC#N.O[C@@H]1CCCC[C@H]1O.O[C@@H]1CCCC[C@H]1O.[TeH2]

>  <measured target>
DMS-273

>  <GI50>
18.1 µM (inactive)

$$$$
>  <compound>
CC1=C[P+](Cc2ccccc2)(c2ccccc2)CC1 (stereo not given)

>  <measured target>
DMS-273

>  <GI50>
80.9 µM (inactive)

$$$$
>  <compound>
C=CCNC(=O)N(CCCCC(NC(C)=O)C(=O)NCc1ccccc1)Cc1ccccc1 (stereo not given)

>  <measured target>
DMS-273

>  <GI50>
> 100 µM (inactive)

$$$$
>  <compound>
O=c1cccccc1NCCOCCNc1cccccc1=O

>  <measured target>
DMS-273

>  <GI50>
> 100 µM (inactive)

$$$$
>  <compound>
CN(C)c1ccc(/C=C(\NC(=O)c2ccccc2)c2nc3ccc4c(c3[nH]2)C(=O)c2ccccc2C4=O)cc1

>  <measured target>
DMS-273

>  <GI50>
27.2 µM (inactive)

$$$$
>  <compound>
O=C(CO)CC(=O)C(=O)Nc1nc([N+](=O)[O-])cs1

>  <measured target>
DMS-273

>  <GI50>
> 100 µM (inactive)

$$$$
>  <compound>
O=C(/N=C(/Nc1ccccc1)SCS/C(=N\C(=O)c1ccco1)Nc1ccccc1)c1ccco1

>  <measured target>
DMS-273

>  <GI50>
37.8 µM (inactive)

$$$$
>  <compound>
Cc1ccc2nc(/C(=C/c3ccc(/C=C(\NC(=O)c4ccccc4)c4nc5ccc(C)cc5[nH]4)c(C)c3)NC(=O)c3ccccc3)[nH]c2c1

>  <measured target>
DMS-273

>  <GI50>
22.6 µM (inactive)

$$$$

* * *

- Tested on: MDA-N
- test summary: NCI tumour cell line growth inhibition, 48 h
Activity calls are given as the source filed them. No stated cut-off is given here; in the data, active = GI50 up to about 1.1 µM and inactive = higher.

>  <compound>
CC1=C(C)SC(=C2Sc3c(n(C)c(=O)n(C)c3=O)S2)S1

>  <GI50>
47.6 µM (inactive)

$$$$
>  <compound>
O=C(NN1C(=O)CSC1c1ccco1)c1ccncc1 (configuration not stated)

>  <GI50>
> 100 µM (inactive)

$$$$
>  <compound>
CC/C(C)=C1\OC(=O)C(C)C(O)C(Cc2cccnc2)NC(=O)C(NC(=O)c2ncccc2O)C(C)OC1=O (configuration not stated)

>  <GI50>
> 100 µM (inactive)

$$$$
>  <compound>
Cn1c(=O)c2c(ncn2CCNC(CO)C(O)c2ccc([N+](=O)[O-])cc2)n(C)c1=O (configuration not stated)

>  <GI50>
> 100 µM (inactive)

$$$$
>  <compound>
CC1(C)C2CCC(=O)C1C(OCc1ccccc1)C2 (configuration not stated)

>  <GI50>
> 100 µM (inactive)

$$$$
>  <compound>
COC(=O)CCC(NC(=O)C(C)NC(=O)COC1C(O)C(OC(=O)CCNc2c3ccccc3nc3cccc([N+](=O)[O-])c23)OC(OCc2ccccc2)C1NC(C)=O)C(N)=O (configuration not stated)

>  <GI50>
2.24 µM (inactive)

$$$$
>  <compound>
CCOC(=O)c1c(N2CCCC2)nsc1Nc1ccc(F)cc1

>  <GI50>
34.9 µM (inactive)

$$$$
>  <compound>
O=C(O)c1ccc(/C=N\N(CCO)C2=NCCN2)cc1

>  <GI50>
> 100 µM (inactive)

$$$$
>  <compound>
COC1OC(=O)C(OC)C(OC)C1OC (configuration not stated)

>  <GI50>
> 100 µM (inactive)

$$$$
>  <compound>
Oc1ccc2ccccc2c1-c1c(Nc2ccccc2)ccc2ccccc12

>  <GI50>
6.22 µM (inactive)

$$$$
>  <compound>
O=[N+]([O-])c1ccc(Cl)c2c([N+](=O)[O-])cccc12

>  <GI50>
2.18 µM (inactive)

$$$$
>  <compound>
COC1=C(OC)C(=O)C(Cc2c(Cl)nc3sc(C)cn23)=C(C)C1=O

>  <GI50>
15.8 µM (inactive)

$$$$
>  <compound>
Nc1nc(Cl)c(N)c(NCC2(CO)CC(CCCc3ccccc3)C2)n1 (configuration not stated)

>  <GI50>
19.3 µM (inactive)

$$$$
>  <compound>
O=C(CCCN1CCC2(CC1)NC(=O)c1ccccc1O2)c1ccc(F)cc1

>  <GI50>
> 100 µM (inactive)

$$$$
>  <compound>
Cc1ccc(Oc2cc(C)ccc2P(=O)(O)O)cc1

>  <GI50>
> 100 µM (inactive)

$$$$
>  <compound>
C/C(=C1/N=C(c2ccccc2)OC1=O)c1ccc(C)cc1

>  <GI50>
> 100 µM (inactive)

$$$$
>  <compound>
Nc1cc(C(=O)O)nc(O)n1

>  <GI50>
> 100 µM (inactive)

$$$$
>  <compound>
O=P(O)(O)C=C=C1CCCCC1

>  <GI50>
> 100 µM (inactive)

$$$$
>  <compound>
CC(C)[C@H](NC(=O)[C@H](N)Cc1ccc(N(CCCl)CCCl)cc1)C(=O)O

>  <GI50>
> 100 µM (inactive)

$$$$
>  <compound>
Cc1cc(C)c(C#N)c(SC(=S)NC(=O)c2ccccc2)n1

>  <GI50>
> 100 µM (inactive)

$$$$
>  <compound>
NS(=O)(=O)c1ccc(NCc2cccc3c(=O)c4ccc(Cl)cc4oc23)cc1

>  <GI50>
23.1 µM (inactive)

$$$$
>  <compound>
CCOC(=O)C(NNS(=O)(=O)c1ccc(C)cc1)S(=O)(=O)C(F)(F)C(F)(F)C(F)(F)C(F)(F)F (configuration not stated)

>  <GI50>
> 100 µM (inactive)

$$$$
>  <compound>
Cn1/c(=N\S(=O)(=O)c2ccccc2)n(S(=O)(=O)c2ccccc2)c2ccccc21

>  <GI50>
61.5 µM (inactive)

$$$$
>  <compound>
O=C(Nc1ccc(N2C(=O)CSC2c2ccccc2O)cc1)c1ccc(N2C(=O)CSC2c2ccccc2O)cc1 (configuration not stated)

>  <GI50>
83.8 µM (inactive)

$$$$
>  <compound>
COc1ccc(N(CN2C(=O)CCC2C(=O)O)C(C)=O)cc1 (configuration not stated)

>  <GI50>
> 100 µM (inactive)

$$$$
>  <compound>
COC(=O)c1c(O)ccc2c1c1c(n2Cc2ccc(Cl)cc2Cl)C(=O)c2ccccc2C1

>  <GI50>
52.8 µM (inactive)

$$$$
>  <compound>
Oc1nc(-c2cccc(F)c2)nc2ccccc12

>  <GI50>
> 62.8 µM (inactive)

$$$$
>  <compound>
CCSC12OC3(CCCCCN3C1=O)C1C(=O)N(c3ccccc3)C(=O)C12 (configuration not stated)

>  <GI50>
> 100 µM (inactive)

$$$$
>  <compound>
CCOC(=O)C(NC(=O)CC(C)C)(Nc1ccc(S(=O)(=O)Nc2nc(C)cc(C)n2)cc1)C(F)(F)F (configuration not stated)

>  <GI50>
> 100 µM (inactive)

$$$$
>  <compound>
Cc1cccc2c1C(=O)C1(Cc3ccccc3C1=O)C2 (configuration not stated)

>  <GI50>
> 100 µM (inactive)

$$$$
>  <compound>
CC(=O)CCC[C@@H](C)[C@@H]1O[C@H]([C@@]2(C)CCC(=O)O2)C[C@H]2C(CSc3ccccc3)C(=O)O[C@@H]12 (some centres not stated)

>  <GI50>
13.8 µM (inactive)

$$$$
>  <compound>
Cc1cc2c(cc1Cl)Sc1nnc(C)n1S2(=O)=O

>  <GI50>
13.8 µM (inactive)

$$$$
>  <compound>
COC1=N[C@H](C(C)C)C(OC)=N[C@H]1Cc1ccc(C[C@@H]2N=C(OC)[C@@H](C(C)C)N=C2OC)s1

>  <GI50>
49.3 µM (inactive)

$$$$
>  <compound>
Cn1cnc(/C=C/C#N)c1

>  <GI50>
> 100 µM (inactive)

$$$$
>  <compound>
COc1cc(Br)cc2c1O[C@H]1C(=O)CC3CC21CCN3C (some centres not stated)

>  <GI50>
66.2 µM (inactive)

$$$$
>  <compound>
COC(=O)/C=C\C(C#N)(C#N)/N=C/c1ccc(C)cc1

>  <GI50>
4.06 µM (inactive)

$$$$
>  <compound>
C/C(=N\Nc1nc2ccccc2o1)c1ccc2ccccc2n1

>  <GI50>
6.49 µM (inactive)

$$$$
